System: Klebsiella pneumoniae NCTC-13439
PROTOCOL DETAILS: percent growth inhibition of drug + antibiotic vs DMSO control; higher = more growth inhibition
CONDITION SUMMARY: antibiotic (0.125x MIC): tigecycline; 20 µM
Structures can show the parent of a compound that is named as a salt.
EXPERIMENTAL ENDPOINT: percent growth inhibition (%)
Give the quantity in %, number only.

Sample records with percent growth inhibition:
COc1ccc(OC)c(C(O)CNC(=O)CN)c1 (configuration not stated) [Midodrine hydrochloride] :: -2.55
CN(C)c1ccc(O)c2c1C[C@H]1C[C@H]3[C@H](N(C)C)C(O)=C(C(N)=O)C(=O)[C@@]3(O)C(O)=C1C2=O [Minocycline hydrochloride] :: 49.8
NC1CCN(c2c(F)cc3c(=O)c(C(=O)O)cn(C4CC4)c3c2Cl)C1 (configuration not stated) :: 96.8
CO[C@H]1/C=C/O[C@@]2(C)Oc3c(C)c(O)c4c(O)c(c(/C=N/N5CCN(C6CCCC6)CC5)c(O)c4c3C2=O)NC(=O)/C(C)=C\C=C\[C@H](C)[C@H](O)[C@@H](C)[C@@H](O)[C@@H](C)[C@H](OC(C)=O)[C@@H]1C :: 42.9
N=C(NCCCCCCNC(=N)NC(=N)Nc1ccc(Cl)cc1)NC(=N)Nc1ccc(Cl)cc1 :: 100

Reported percent growth inhibition for Klebsiella pneumoniae NCTC-13439, given COc1c(N2C[C@@H]3CCCN[C@@H]3C2)c(F)cc2c(=O)c(C(=O)O)cn(C3CC3)c12 ? 99.7

Can you look up percent growth inhibition on Klebsiella pneumoniae NCTC-13439 for CN[C@@H]1[C@@H](O[C@H]2O[C@H](CO)[C@@H](N)[C@H](O)[C@H]2O)OC2C[C@@H](N)[C@@H](O[C@H]3[C@H](O)[C@@H](O)[C@H](N)C[C@@H]3N)OC2[C@@H]1O (some centres not stated) ? 100

----------
System: Escherichia coli ATCC BAA-2469
PROTOCOL DETAILS: percent growth inhibition of drug alone vs DMSO control; higher = more growth inhibition
CONDITION SUMMARY: antibiotic (0.125x MIC): none (0.1% DMSO); 7 µM
EXPERIMENTAL ENDPOINT: percent growth inhibition of drug alone
Value and unit, in that order.

O=C1NCCN1c1ncc([N+](=O)[O-])s1 :: 19.9%
NS(=O)(=O)c1cc2c(cc1C(F)(F)F)NC(Cc1ccccc1)NS2(=O)=O (centres undefined) [Bendroflumethiazide] :: -1.67%
CC(=O)OC[C@H]1O[C@@H]([S-])[C@H](OC(C)=O)[C@@H](OC(C)=O)[C@@H]1OC(C)=O.CCP(CC)CC.[Au+] :: 5.6%

We next turn to a different compound, shown below.
Name the recorded percent growth inhibition of drug alone for Cc1cc(/C=C/c2ccc3cc(N(C)C)ccc3[n+]2C)c(C)n1-c1ccccc1 [Pyrvinium pamoate] . 11.8%

----------
Test system: Escherichia coli ATCC BAA-2469
PROTOCOL DETAILS: percent growth inhibition of drug alone vs DMSO control; higher = more growth inhibition
CONDITION SUMMARY: antibiotic (0.125x MIC): none (0.1% DMSO); 7 µM
EXPERIMENTAL ENDPOINT: percent growth inhibition of drug alone
Lab note: write values as number then unit, every time.

Some solved entries appear below for comparison.
CC1CS(=O)(=O)CCN1/N=C/c1ccc([N+](=O)[O-])o1 (centres undefined) :: 1.01%
C#C[C@]1(O)CC[C@H]2[C@@H]3CCC4=C(CCC(=O)C4)[C@H]3CC[C@@]21C :: 0.455%
Cc1nnc(NS(=O)(=O)c2ccc(N)cc2)s1 :: 2.42%

Here is another compound to look at.
I'd like to know its percent growth inhibition of drug alone. The compound in question is N=C(NCCCCCCNC(=N)NC(=N)Nc1ccc(Cl)cc1)NC(=N)Nc1ccc(Cl)cc1 103%

----------
System: Escherichia coli ATCC BAA-2469
PROTOCOL DETAILS: percent growth inhibition of drug + antibiotic vs DMSO control; higher = more growth inhibition
CONDITION SUMMARY: antibiotic (0.125x MIC): ciprofloxacin; 20 µM
EXPERIMENTAL ENDPOINT: percent growth inhibition

# example entries with known answers
COC(=O)N/N=C/c1c[n+]([O-])c2ccccc2[n+]1[O-] [Carbadox] :: 68.9%
O=c1[nH]c(=O)n([C@H]2C[C@H](O)[C@@H](CO)O2)cc1C(F)(F)F [Trifluridine] :: 25.5%
O=C1OCCN1/N=C/c1ccc([N+](=O)[O-])o1 [Furazolidone] :: 102%

Bench note: what percent growth inhibition did O=C(N[C@H](CO)[C@H](O)c1ccc([N+](=O)[O-])cc1)C(Cl)Cl [Chloramphenicol] show? 92.4%

Any idea what percent growth inhibition was measured for CO[C@H]1/C=C/O[C@@]2(C)Oc3c(C)c(O)c4c(O)c(c(/C=N/N5CCN(C6CCCC6)CC5)c(O)c4c3C2=O)NC(=O)/C(C)=C\C=C\[C@H](C)[C@H](O)[C@@H](C)[C@@H](O)[C@@H](C)[C@H](OC(C)=O)[C@@H]1C [Rifapentine] ? 99.9%

Value lookup for percent growth inhibition; key = CS(=O)(=O)c1ccc([C@@H](O)[C@@H](CF)NC(=O)C(Cl)Cl)cc1 [Florfenicol] 88.8%

----------
Tested on: Escherichia coli ATCC BAA-2469
PROTOCOL DETAILS: percent growth inhibition of drug + antibiotic vs DMSO control; higher = more growth inhibition
CONDITION SUMMARY: antibiotic (0.125x MIC): ciprofloxacin; 20 µM
Structures can show the parent of a compound that is named as a salt.
EXPERIMENTAL ENDPOINT: percent growth inhibition (%)
Output spec: scalar in %, unitless text.

Solved cases (5 shown):
O=C1c2c(O)ccc(O)c2C(=O)c2c(NCCNCCO)ccc(NCCNCCO)c21 [Mitoxantrone dihydrochloride] :: 52.9
CO[C@H]1/C=C/O[C@@]2(C)Oc3c(C)c(O)c4c(O)c(c(/C=N/N5CCN(C)CC5)c(O)c4c3C2=O)NC(=O)/C(C)=C\C=C\[C@H](C)[C@H](O)[C@@H](C)[C@@H](O)[C@@H](C)[C@H](OC(C)=O)[C@@H]1C :: 101
Cc1nnc(NS(=O)(=O)c2ccc(N)cc2)s1 :: 4.47
Nc1nc(F)nc2c1ncn2[C@@H]1O[C@H](CO)[C@@H](O)[C@@H]1O :: 58.8
O=C1NCCN1c1ncc([N+](=O)[O-])s1 :: 86.8

# next compound below
Sample CO[C@H]1/C=C/O[C@@]2(C)Oc3c(C)c(O)c4c(O)c(c5c(nc6cc(C)ccn65)c4c3C2=O)NC(=O)/C(C)=C\C=C\[C@H](C)[C@H](O)[C@@H](C)[C@@H](O)[C@@H](C)[C@H](OC(C)=O)[C@@H]1C — what was its percent growth inhibition? 99.4

----------
Quick list: percent growth inhibition of drug alone per entry.
Test system: Klebsiella pneumoniae KPC-119
PROTOCOL DETAILS: percent growth inhibition of drug alone vs DMSO control; higher = more growth inhibition
CONDITION SUMMARY: antibiotic (0.125x MIC): none (0.1% DMSO); 20 µM
Where a name gives a salt, the structure may show the parent alone.
Please answer using the number first and the unit second.

Below, 5 compounds whose answers are already recorded.
CCn1cc(C(=O)O)c(=O)c2cc(F)c(N3CCN(C)CC3)cc21 :: 51.2%
COc1cccc2c1C(=O)c1c(O)c3c(c(O)c1C2=O)C[C@@](O)(C(=O)CO)C[C@@H]3O[C@H]1C[C@H](N)[C@@H](O)[C@H](C)O1 [Epirubicin hydrochloride] :: -0.106%
CC(=O)OCC(=O)[C@@]1(O)CC[C@H]2[C@@H]3CCC4=CC(=O)CC[C@]4(C)[C@@]3(F)[C@@H](O)C[C@@]21C [Fludrocortisone acetate] :: 3.28%
Oc1c(I)cc(Cl)c2cccnc12 :: 44.5%
C=CC1=C(C(=O)O)N2C(=O)[C@@H](NC(=O)/C(=N\OCC(=O)O)c3csc(N)n3)[C@H]2SC1 :: 44.3%

Requested field: percent growth inhibition of drug alone. Item: CC1CCc2cc(F)cc3c(=O)c(C(=O)O)cn1c23 (configuration not stated) 65.7%

Reported percent growth inhibition of drug alone, compound O=C1NCN(c2ccccc2)C12CCN(CCCC(c1ccc(F)cc1)c1ccc(F)cc1)CC2 : ____ -1.04%

----------
System: Klebsiella pneumoniae NCTC-13439
PROTOCOL DETAILS: percent growth inhibition of drug + antibiotic vs DMSO control; higher = more growth inhibition
CONDITION SUMMARY: antibiotic (0.125x MIC): ciprofloxacin; 7 µM
Each entry below carries its recorded percent growth inhibition.
Please give the number followed by its unit.

CC[C@H]1OC(=O)[C@H](C)[C@@H](O[C@H]2C[C@@](C)(OC)[C@@H](O)[C@H](C)O2)[C@H](C)[C@@H](O[C@@H]2O[C@H](C)C[C@H](N(C)C)[C@H]2O)[C@](C)(O)C[C@@H](C)CN(C)[C@H](C)[C@@H](O)[C@]1(C)O :: 44.5%

Attention now turns to another entry.
Quick check: percent growth inhibition on Klebsiella pneumoniae NCTC-13439, item O=C1OCCN1/N=C/c1ccc([N+](=O)[O-])o1 ? 17%
